tested on: K562 cells, a human proerythroblast cell line; test: Hemoglobin production in K562 cells (fluorescence of the porphyrin ring); assay type: cell-based; conditions: drug concentration 20 μM
This listing pairs compounds with measured enhancement of hemoglobin production.
Kindly answer with a numeric value in %, unit omitted.

Use the examples below as a reference point.
- compound: "CC(=O)N1c2ccc(NS(C)(=O)=O)cc2C(Nc2ccc(N3CCOCC3)cc2)CC1C (stereo not shown) [Compound 98]"
  targetOrTestSystem: "K562 cells, a human proerythroblast cell line"
  parameterMeasured: "enhancement of hemoglobin production"
  measurement: 142
- compound: "CC(=O)N1c2c(F)cccc2[C@H](Nc2ccccc2F)C[C@@H]1C (relative stereo) [Compound 4]"
  targetOrTestSystem: "K562 cells, a human proerythroblast cell line"
  parameterMeasured: "enhancement of hemoglobin production"
  measurement: 162
- compound: "CC(=O)N1c2ccc(C(N)=O)cc2[C@H](Nc2ccc(NS(C)(=O)=O)cc2)C[C@@H]1C (relative stereo) [Compound 102]"
  targetOrTestSystem: "K562 cells, a human proerythroblast cell line"
  parameterMeasured: "enhancement of hemoglobin production"
  measurement: 115
- compound: "CC(=O)N1c2c(Br)cccc2C(Nc2ccccc2)CC1C (stereo not shown) [Compound 63]"
  targetOrTestSystem: "K562 cells, a human proerythroblast cell line"
  parameterMeasured: "enhancement of hemoglobin production"
  measurement: 260
- compound: "CCOC(=O)Cc1ccc(NC2CC(C)N(C(C)=O)c3ccc(NS(C)(=O)=O)cc32)cc1 (stereo not shown) [Compound 99]"
  targetOrTestSystem: "K562 cells, a human proerythroblast cell line"
  parameterMeasured: "enhancement of hemoglobin production"
  measurement: 306
- compound: "CC(=O)N1c2ccccc2[C@H](OCc2ccccc2)C[C@@H]1C (relative stereo) [Compound 36]"
  targetOrTestSystem: "K562 cells, a human proerythroblast cell line"
  parameterMeasured: "enhancement of hemoglobin production"
  measurement: 143

Would you kindly look at the next entry?
Incoming: Request the reported enhancement of hemoglobin production associated with CC(=O)N1c2ccc(N3CCN(C(=O)C(C)C)CC3)cc2C(Nc2ccc(NS(C)(=O)=O)cc2)CC1C (stereo not shown) [Compound 111]
Outgoing: 171
